target entity: human Retinoid X Receptor beta (RXRb), RXRB (gene 6257) (UniProt P28702)
Sequence (P28702 whole entry, looked up): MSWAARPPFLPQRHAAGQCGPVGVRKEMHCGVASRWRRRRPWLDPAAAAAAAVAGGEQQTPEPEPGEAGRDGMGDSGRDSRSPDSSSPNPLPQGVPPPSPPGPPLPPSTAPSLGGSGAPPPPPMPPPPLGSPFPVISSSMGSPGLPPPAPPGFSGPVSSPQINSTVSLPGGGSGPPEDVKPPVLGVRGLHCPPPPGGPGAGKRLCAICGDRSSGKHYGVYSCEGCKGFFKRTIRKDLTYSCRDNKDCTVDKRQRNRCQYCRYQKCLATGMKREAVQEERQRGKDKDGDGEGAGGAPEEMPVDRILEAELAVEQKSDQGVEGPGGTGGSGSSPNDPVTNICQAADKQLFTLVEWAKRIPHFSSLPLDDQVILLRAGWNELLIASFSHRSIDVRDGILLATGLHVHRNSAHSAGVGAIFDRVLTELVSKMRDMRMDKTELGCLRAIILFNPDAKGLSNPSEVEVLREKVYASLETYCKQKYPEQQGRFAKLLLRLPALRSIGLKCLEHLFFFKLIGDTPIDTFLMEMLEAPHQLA
assay overview: ATG_RXRb_TRANS: Attagene TRANS-FACTORIAL HepG2 Assay for human Retinoid X Receptor beta (RXRb) (AID 2283013)
Records with an inconclusive call do not appear. Calls of active or inactive are those of the source. The calls were made as follows: active = hit-call score of the fitted dose curve at least 0.9, where 1 is the maximum; inconclusive = response in the unintended direction; inactive = score below 0.9.
measured metric: outcome

Examples with their reported outcome follow.
{"columns": ["compound", "target entity", "outcome"],
 "data": [
  ["CO/C=C(/C(=O)OC)c1ccccc1Oc1cc(Oc2ccccc2C#N)ncn1", "human Retinoid X Receptor beta (RXRb), RXRB (gene 6257) (UniProt P28702)", "inactive"],
  ["COc1ccc(C(c2ccc(OC)cc2)C(Cl)(Cl)Cl)cc1", "human Retinoid X Receptor beta (RXRb), RXRB (gene 6257) (UniProt P28702)", "inactive"],
  ["N#Cc1cc(Br)c(O)c(Br)c1", "human Retinoid X Receptor beta (RXRb), RXRB (gene 6257) (UniProt P28702)", "inactive"],
  ["COP(=S)(OC)Oc1nc(Cl)c(Cl)cc1Cl", "human Retinoid X Receptor beta (RXRb), RXRB (gene 6257) (UniProt P28702)", "inactive"],
  ["CNC(=S)S", "human Retinoid X Receptor beta (RXRb), RXRB (gene 6257) (UniProt P28702)", "inactive"]
]}

Field request: outcome | item: CCOC(=O)C(Cl)Cc1cc(-n2nc(C)n(C(F)F)c2=O)c(F)cc1Cl (configuration not stated)
inactive

Field request: outcome | item: CC1=C(C(=O)Nc2ccccc2)SCCO1
inactive
